Molecular target: Adenosine receptor A3 (Rattus norvegicus, UniProt P28647)
Sequence (P28647 whole entry): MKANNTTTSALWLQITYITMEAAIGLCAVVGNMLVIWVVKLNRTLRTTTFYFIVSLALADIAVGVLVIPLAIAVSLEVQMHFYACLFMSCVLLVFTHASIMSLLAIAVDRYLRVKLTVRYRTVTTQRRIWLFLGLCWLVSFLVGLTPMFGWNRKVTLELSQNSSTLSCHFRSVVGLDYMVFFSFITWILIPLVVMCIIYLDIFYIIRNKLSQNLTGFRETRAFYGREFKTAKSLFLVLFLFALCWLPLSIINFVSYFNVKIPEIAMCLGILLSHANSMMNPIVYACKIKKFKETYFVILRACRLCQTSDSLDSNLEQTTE
Assay: Binding affinity to rat adenosine A3 receptor measured by radioligand binding assay
pKi: −log10 of the molar value.
ATTRIBUTE MEASURED: pKi

structure=CC[C@@H]1CN2C(=O)N(C)c3nc(-c4ccccc4)[nH]c3C2=N1 measured_on="Adenosine receptor A3 (Rattus norvegicus, UniProt P28647)" val="< 5.00"
structure=CCCn1cc2c(nc(NC(=O)Nc3ccc(OC)cc3)n3nc(-c4ccco4)nc23)n1 measured_on="Adenosine receptor A3 (Rattus norvegicus, UniProt P28647)" val="< 5.00"
